# Tested on: Nucleic Acid
# protocol-text: Binding affinity to HSP90B quadruplex DNA assessed as change in melting temperature at 1 uM by FRET melting assay
# Assay type: nucleic-acid assay
# stated-conditions: Homo sapiens
attribute-measured: ΔTm (°C)

Observe how each entry below is paired with its result.
{"columns": ["smi", "ΔTm (°C)"],
 "data": [
  ["c1cc(-c2cnc(-c3ccc(CN4CCCCCC4)cc3)o2)cc(-c2cnc(-c3ccc(CN4CCCCCC4)cc3)o2)c1", 9],
  ["CC(C)N(Cc1ccc(-c2ncc(-c3cccc(-c4cnc(-c5ccc(CN(C(C)C)C(C)C)cc5)o4)c3)o2)cc1)C(C)C", 8]
]}

P = CN1CCN(Cc2ccc(-c3ncc(-c4cccc(-c5cnc(-c6ccc(CN7CCN(C)CC7)cc6)o5)c4)o3)cc2)CC1
Q = CN1CCN(CCc2ccc(-c3ncc(-c4cccc(-c5cnc(-c6ccc(CCN7CCN(C)CC7)cc6)o5)c4)o3)cc2)CC1
Request: Hello, I am sorting some records. Could you say if P or Q has the smaller ΔTm value? Write the label of whichever entry you select.
Response: Q

1 = c1cc(-c2cnc(-c3cccc(CN4CCCCC4)c3)o2)cc(-c2cnc(-c3cccc(CN4CCCCC4)c3)o2)c1
2 = c1cc(-c2cnc(-c3ccc(OCCN4CCCC4)cc3)o2)cc(-c2cnc(-c3ccc(OCCN4CCCC4)cc3)o2)c1
Request: Between the entries labelled 1 and 2 , which has a larger ΔTm value on record? Write down the label of the entry you select.
Response: 1
(1: 3 °C, 2: 2 °C)
